# Measurement target: Thermolysin (Bacillus thermoproteolyticus)
# Sequence (P00800 233-548 limits assumed): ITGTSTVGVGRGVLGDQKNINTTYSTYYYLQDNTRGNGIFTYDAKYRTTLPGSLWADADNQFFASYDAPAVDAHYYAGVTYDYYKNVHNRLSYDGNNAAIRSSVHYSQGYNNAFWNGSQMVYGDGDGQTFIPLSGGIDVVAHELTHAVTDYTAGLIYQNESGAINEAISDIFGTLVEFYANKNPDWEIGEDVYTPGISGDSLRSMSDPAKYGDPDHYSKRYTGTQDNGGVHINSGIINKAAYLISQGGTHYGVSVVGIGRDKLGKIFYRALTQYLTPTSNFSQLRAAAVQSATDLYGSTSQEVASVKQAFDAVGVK
Measurement name: Ki (mM)
Number in mM, nothing else.

Challenge: Supply reported Ki belonging to this compound: `COC(=O)[C@H](CC(C)C)N(O)C(=O)CCl`
Response given: 4.5
